Target: Long-chain-fatty-acid--AMP ligase FadD28 (Mycobacterium tuberculosis)
Sequence (P9WQ59 whole entry): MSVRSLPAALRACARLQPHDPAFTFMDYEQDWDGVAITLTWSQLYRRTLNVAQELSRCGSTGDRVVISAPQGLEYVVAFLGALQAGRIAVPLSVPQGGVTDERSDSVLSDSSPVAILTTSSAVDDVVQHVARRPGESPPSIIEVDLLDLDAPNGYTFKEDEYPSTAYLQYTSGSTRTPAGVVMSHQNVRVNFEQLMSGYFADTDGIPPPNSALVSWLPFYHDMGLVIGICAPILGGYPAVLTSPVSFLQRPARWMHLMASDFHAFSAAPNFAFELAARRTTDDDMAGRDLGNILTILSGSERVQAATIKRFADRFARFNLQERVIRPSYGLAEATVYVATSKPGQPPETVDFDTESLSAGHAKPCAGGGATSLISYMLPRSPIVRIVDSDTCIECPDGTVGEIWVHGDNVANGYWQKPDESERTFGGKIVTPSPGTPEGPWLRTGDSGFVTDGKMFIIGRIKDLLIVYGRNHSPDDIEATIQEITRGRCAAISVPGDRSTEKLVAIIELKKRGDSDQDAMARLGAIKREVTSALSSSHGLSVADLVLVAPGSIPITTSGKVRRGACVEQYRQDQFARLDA
Experiment: Inhibition of Mycobacterium tuberculosis H37Rv FAAL28 Spectra expressed in Escherichia coli BL21(DE3) cells assessed as cleavage of MEsG by spectroscopic analysis
Conditions: read-out: Ki(app)
reported_property: Ki

Examples from the recorded data:
substance_smiles	Ki
Nc1ncnc2c1ncn2[C@@H]1O[C@H](CNS(=O)(=O)OCCCCCCCCCCCOc2ccccc2)[C@@H](O)[C@H]1O	> 100000 nM
Nc1ncnc2c1ncn2[C@@H]1O[C@H](COS(=O)(=O)NC(=O)CCCCCCCCCCOc2ccc(F)cc2)[C@@H](O)[C@H]1O	300 nM
Nc1ncnc2c1ncn2[C@@H]1O[C@H](COS(=O)(=O)NC(=O)CCCCCCCCCCOc2cccc(Cl)c2)[C@@H](O)[C@H]1O	500 nM

Now turn to the next molecule.
Prompt: Query: Ki; subject: COc1cccc(OCCCCCCCCCCC(=O)NS(=O)(=O)OC[C@H]2O[C@@H](n3cnc4c(N)ncnc43)[C@H](O)[C@@H]2O)c1
Completion: 1700 nM
